- TARGET UNDER TEST: T1, CRBN, Q96SW2;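 also: pooled lentiviral library of zinc finger degron-EGFP fusions in mCherry-positive Jurkat cells, FACS-sorted after compound exposure, with degron abundance counted by next-generation sequencing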
- T1 chain: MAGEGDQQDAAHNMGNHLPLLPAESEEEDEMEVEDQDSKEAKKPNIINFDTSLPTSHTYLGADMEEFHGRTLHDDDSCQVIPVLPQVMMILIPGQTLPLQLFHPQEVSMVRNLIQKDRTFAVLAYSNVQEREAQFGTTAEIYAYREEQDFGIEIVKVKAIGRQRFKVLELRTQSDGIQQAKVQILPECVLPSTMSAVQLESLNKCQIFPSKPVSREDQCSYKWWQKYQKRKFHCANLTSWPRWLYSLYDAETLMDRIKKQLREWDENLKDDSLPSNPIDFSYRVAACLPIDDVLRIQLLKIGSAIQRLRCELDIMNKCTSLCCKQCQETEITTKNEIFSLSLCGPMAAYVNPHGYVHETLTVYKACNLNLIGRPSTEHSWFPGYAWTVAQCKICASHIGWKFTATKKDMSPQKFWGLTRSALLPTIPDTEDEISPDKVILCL
- EXPERIMENTAL PROTOCOL: log2 fold change of degron read counts, EGFP-low vs EGFP+ sorted cells (limma voom), compound-induced degradation; higher = more compound-induced degradation of the degron-EGFP fusion; degrons are variants of IKZF1/3 zinc finger 2; compound dose not given here
- TEST SETTINGS: Jurkat; 18 h; compound: compound 19 (5-tert-butyl-thalidomide)
The full ranking holds about 8,300 sequences; the median of “log2 fold change of degron read counts, EGFP-low vs EGFP+ sorted cells (limma voom), compound-induced degradation” is about -1.1, and the highest 2% start at about 3.2. What follows is part of a selection rich in the highest values, with near analogues and random picks from the rest.
VALUE TYPE: log2 fold change of degron read counts

{"RECORD SEQUENCE": "FNCPICGHCFTQKGNLLRHIKL [46F_47N_49P_50I_52G_53H_54C_55F_67L_, Q9UKT9]", "log2 fold change of degron read counts": -2.1}

Request: Please give the documented log2 fold change of degron read counts of FECPICGRGFTQKGNLLRHIKL [46F_47E_49P_50I_52G_53R_54G_55F_67L_, Q9UKT9]
Result: -1.82

Request: Please give the documented log2 fold change of degron read counts of FACPICGATFTQKGNLLRHIKL [46F_47A_49P_50I_52G_53A_54T_55F_67L_, Q9UKT9]
Result: 3.39

Request: Please give the documented log2 fold change of degron read counts of FDCNVCGASFTQKGNLLRHIKL [46F_47D_49N_50V_52G_53A_54S_55F_67L_, Q9UKT9]
Result: -0.855

Request: Please give the documented log2 fold change of degron read counts of FCCNQCGHDFTQKGNLLRHIKL [46F_47C_49N_50Q_52G_53H_54D_55F_67L_, Q9UKT9]
Result: -2.95

Request: Please give the documented log2 fold change of degron read counts of LKCNQCGFCCTQKGNLLRHIKL [46L_47K_49N_50Q_52G_53F_54C_55C_67L_, Q9UKT9]
Result: -2.31

Data origin: the supplement of paper PMC12645437
